biological target: Hap1 (UniProt P0CE41); test: PBM E-score (8-mer binding enrichment) (E-score (-0.5 to 0.5)); higher = stronger / more preferred TF binding; settings: protein concentration: 200 nM; construct: GST-DNA-binding domain
Sequence (P0CE41 whole entry, the tested form may be a part): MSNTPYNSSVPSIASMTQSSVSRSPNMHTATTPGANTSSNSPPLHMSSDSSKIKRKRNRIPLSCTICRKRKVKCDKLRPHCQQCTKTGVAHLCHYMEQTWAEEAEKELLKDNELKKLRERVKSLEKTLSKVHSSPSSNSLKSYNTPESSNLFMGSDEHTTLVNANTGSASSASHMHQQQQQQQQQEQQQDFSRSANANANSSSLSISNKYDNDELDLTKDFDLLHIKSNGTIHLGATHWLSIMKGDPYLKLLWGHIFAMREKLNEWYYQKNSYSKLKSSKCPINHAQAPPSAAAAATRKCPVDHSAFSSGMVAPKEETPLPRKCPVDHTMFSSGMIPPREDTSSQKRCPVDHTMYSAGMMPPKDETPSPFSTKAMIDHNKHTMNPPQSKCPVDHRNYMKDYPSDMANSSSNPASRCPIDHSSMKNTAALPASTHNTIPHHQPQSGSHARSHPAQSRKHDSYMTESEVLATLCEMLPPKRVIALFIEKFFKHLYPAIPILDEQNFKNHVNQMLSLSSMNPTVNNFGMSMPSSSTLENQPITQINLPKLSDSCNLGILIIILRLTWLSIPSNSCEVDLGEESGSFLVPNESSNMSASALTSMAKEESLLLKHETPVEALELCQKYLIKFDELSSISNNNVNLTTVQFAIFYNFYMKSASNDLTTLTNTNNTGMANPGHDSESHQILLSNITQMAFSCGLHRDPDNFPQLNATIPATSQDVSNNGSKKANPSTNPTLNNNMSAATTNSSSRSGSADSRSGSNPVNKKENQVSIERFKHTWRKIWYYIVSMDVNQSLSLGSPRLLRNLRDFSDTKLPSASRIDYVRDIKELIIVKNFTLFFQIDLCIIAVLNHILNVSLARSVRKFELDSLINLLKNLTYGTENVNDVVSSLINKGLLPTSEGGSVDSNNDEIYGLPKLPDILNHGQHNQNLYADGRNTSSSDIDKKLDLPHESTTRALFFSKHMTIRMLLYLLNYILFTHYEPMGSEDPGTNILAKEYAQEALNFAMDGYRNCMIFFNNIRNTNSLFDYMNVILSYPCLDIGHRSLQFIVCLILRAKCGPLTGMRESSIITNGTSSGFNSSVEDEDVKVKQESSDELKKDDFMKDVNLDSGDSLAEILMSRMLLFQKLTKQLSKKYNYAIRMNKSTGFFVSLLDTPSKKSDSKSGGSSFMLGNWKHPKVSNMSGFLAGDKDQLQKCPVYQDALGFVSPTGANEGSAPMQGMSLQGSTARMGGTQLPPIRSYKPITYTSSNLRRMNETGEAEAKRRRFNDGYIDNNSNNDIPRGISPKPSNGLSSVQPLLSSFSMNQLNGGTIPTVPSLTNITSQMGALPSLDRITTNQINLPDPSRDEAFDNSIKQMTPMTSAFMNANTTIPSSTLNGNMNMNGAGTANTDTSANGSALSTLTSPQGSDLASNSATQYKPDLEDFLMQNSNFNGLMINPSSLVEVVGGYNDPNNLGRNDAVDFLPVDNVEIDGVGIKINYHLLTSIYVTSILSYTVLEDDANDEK
The full ranking holds about 33,000 sequences; the median of “E-score (-0.5 to 0.5)” is about -0.053, and the highest 2% start at about 0.37. What follows is part of a selection rich in the highest values, with near analogues and random picks from the rest.
Catalogue of PBM E-score readings, one per entry.
endpoint-name: PBM E-score

* GGACCTAA | 0.371
* GTCGCCGA | 0.246
* TGACCTAA | -0.158
* CGACCTAA | 0.161
* GGTTTTAA | 0.334
* ACACTGAA | -0.0306
* TCCGCCGA | 0.425
* ATCGCCCA | -0.0821
* ATCGCCCG | 0.372
* GCCGCCGA | 0.26
* ATCGCCGA | 0.445

---

biological target: Hap1 (UniProt P0CE41); assay: PBM E-score (8-mer binding enrichment) (E-score (-0.5 to 0.5)); higher = stronger / more preferred TF binding; details: protein concentration: 200 nM; construct: GST-DNA-binding domain
In all, about 33,000 sequences were measured (“E-score (-0.5 to 0.5)”: median about -0.053, highest 2% from about 0.37 on). For the sample, the highest values were picked, then their nearest neighbours and some sequences at random.
Label class 0 if PBM E-score falls below 0.1; label class 1 in every other case.

* CAACGGAA | class 1
* GGGAGTAA | class 1
* AAGCAGCT | class 0
* CGGACATA | class 1
* GAACGGAA | class 1
* CGAGATGC | class 0
* CGGAGTAC | class 1
* GATGAGGC | class 0
* CATCGGCA | class 1
* GTCTCGGA | class 1
* CATCGGAA | class 1
* ATTTCCAG | class 1
* GGGAGTTA | class 1
* ATTTCCTG | class 0
* GAGCGTGA | class 0
* AGCTCGGC | class 1
* CTCTCGAA | class 0
* ATCTCGGG | class 1
* CTAACAGA | class 0
* CGGACAAA | class 1
* GTCATCAC | class 0
* AGGACAAA | class 0
* ATTTCCGG | class 1
* CTCTCGCA | class 0
* CTGAGTTC | class 0
* CGGAGTTC | class 1
* ATGGACGA | class 0
* AATCGGAA | class 1
* CTTCAAGA | class 0
* GAGAATGA | class 0
* TATCGGGA | class 1
* CTTTCCGC | class 1
* CGGAGTTA | class 1
* GTTTCCGA | class 1
* ACATTCCC | class 0
* AATCGGCA | class 1
* ACTTCCGA | class 1
* TATCGGAA | class 1
* CCTGTGGA | class 0
* ATGGGTCA | class 0
* AGGTTGTA | class 0
* CACCAATC | class 0
* ACGCTTGG | class 0
* CGGCTAGC | class 0
* GATCGGGA | class 1
* GGCAAGCC | class 0

---

target: Hap1 (UniProt P0CE41); test: PBM E-score (8-mer binding enrichment) (E-score (-0.5 to 0.5)); higher = stronger / more preferred TF binding; settings: protein concentration: 200 nM; construct: GST-DNA-binding domain
In all, about 33,000 sequences were measured (“E-score (-0.5 to 0.5)”: median about -0.053, highest 2% from about 0.37 on). Shown is part of a subset that was picked to be rich in the highest values.
endpoint-name: PBM E-score

- ATCCGTTC: 0.233
- GAACGCAA: -0.0397
- CGGACGAG: 0.387
- CCGGAGGA: 0.432
- ACGGAGAA: 0.27
- CAGGAGAA: -0.147
- GTGGATCA: -0.21
- GGGACGAA: 0.0323
- AGGACGAC: -0.143
- CCGGAGAG: 0.354
- CCGGAGTA: 0.435
- ATCCGGGA: 0.239
- CCGGAGGC: 0.286
- ATCCGTTG: 0.301
- ACGGGCCC: 0.214
- GTCCGTTA: 0.444
- TATCAGAA: 0.0826
- GGGACGAC: -0.117
- GTTGCAAA: -0.0687
- ATCCGTTA: 0.409
- GCGGAGGA: 0.17
- AGGACGAG: -0.282
